# Study system: human 20S proteasome (Homo sapiens)
# Construct: human erythrocyte 20S proteasomes (AK-740, Biomol); purchased Biomol AK-740; host or cells: human erythrocytes
# Assay name: Proteasome inhibition assay, chymotryptic activity (substrate Suc-LLVY-AMC)
# Format: biochemical
# reported Ki; entries follow

(Q) Could you share which Ki value was measured for COCCOCCOCCNC(=O)N[C@H](C(=O)N[C@H]1/C=C/CCNC(=O)/C=C/[C@H](C(C)C)NC1=O)C(C)C [Compound 5, SylA-PEG2] ?
(A) < 20 nM

(Q) Sample CCCCCCCCCCNC(=O)N[C@H](C(=O)N[C@H]1/C=C/CCNC(=O)/C=C/[C@H](C(C)C)NC1=O)C(C)C [Compound 4, SylA-decanyl] — what was its Ki?
(A) < 20 nM

(Q) Suppose we examine the compound COCCOCCNC(=O)[C@@H](NC(=O)N[C@H](C(=O)N[C@H]1/C=C/CCNC(=O)/C=C/[C@H](C(C)C)NC1=O)C(C)C)C(C)C [Compound 3, SylA-PEG1] ; what Ki value has been reported?
(A) < 20 nM

(Q) Which Ki value is on record for COC(=O)[C@@H](NC(=O)N[C@H](C(=O)N[C@H]1/C=C/CCNC(=O)/C=C/[C@H](C(C)C)NC1=O)C(C)C)C(C)C [Compound 1, SylA-OCH3] ?
(A) > 100 nM

----------
# Study system: human 20S proteasome (Homo sapiens)
# Construct: human erythrocyte 20S proteasomes (AK-740, Biomol); purchased Biomol AK-740; host or cells: human erythrocytes
# Assay name: Proteasome inhibition assay, tryptic activity (substrate Boc-LRR-AMC)
# Assay type: biochemical
pKi: −log10 of the molar value.
// reported pKi for each item listed

Molecule	Parameter measured	Result value
CCCCCCCCCCNC(=O)N[C@H](C(=O)N[C@H]1/C=C/CCNC(=O)/C=C/[C@H](C(C)C)NC1=O)C(C)C	pKi	7.00 to 7.70
COC(=O)[C@@H](NC(=O)N[C@H](C(=O)N[C@H]1/C=C/CCNC(=O)/C=C/[C@H](C(C)C)NC1=O)C(C)C)C(C)C	pKi	< 7.00
COCCOCCNC(=O)[C@@H](NC(=O)N[C@H](C(=O)N[C@H]1/C=C/CCNC(=O)/C=C/[C@H](C(C)C)NC1=O)C(C)C)C(C)C	pKi	7.00 to 7.70

Pending molecule:
(Q) Hi! What's the reported pKi for "COCCOCCOCCNC(=O)N[C@H](C(=O)N[C@H]1/C=C/CCNC(=O)/C=C/[C@H](C(C)C)NC1=O)C(C)C" on human 20S proteasome (Homo sapiens)?
(A) 7.00 to 7.70

----------
In this section, each of the molecules is paired with its reported Ki.
# Study system: human 20S proteasome (Homo sapiens)
# Construct: human erythrocyte 20S proteasomes (AK-740, Biomol); purchased Biomol AK-740; host or cells: human erythrocytes
# Assay name: Proteasome inhibition assay, caspase-like activity (substrate Z-LLE-AMC)
# Type: biochemical

Recorded Ki, per entry:
Molecule	Result value
COCCOCCNC(=O)[C@@H](NC(=O)N[C@H](C(=O)N[C@H]1/C=C/CCNC(=O)/C=C/[C@H](C(C)C)NC1=O)C(C)C)C(C)C [Compound 3, SylA-PEG1]	> 100 nM
COCCOCCOCCNC(=O)N[C@H](C(=O)N[C@H]1/C=C/CCNC(=O)/C=C/[C@H](C(C)C)NC1=O)C(C)C [Compound 5, SylA-PEG2]	> 100 nM
COC(=O)[C@@H](NC(=O)N[C@H](C(=O)N[C@H]1/C=C/CCNC(=O)/C=C/[C@H](C(C)C)NC1=O)C(C)C)C(C)C [Compound 1, SylA-OCH3]	> 50000 nM

Let us move to another entry and its Ki.
(Q) Can you share its Ki? I mean this molecule: CCCCCCCCCCNC(=O)N[C@H](C(=O)N[C@H]1/C=C/CCNC(=O)/C=C/[C@H](C(C)C)NC1=O)C(C)C [Compound 4, SylA-decanyl]
(A) > 100 nM
